system.name: T1, soluble human FcRn (human, UniProt P55899 24-297; P61769 21-119, biotinylated (Sulfo-NHS-LC-Biotin) in the ELISA; amine-coupled to CM5 chip in SPR)
T1 construct: also called shFcRn; biotinylated shFcRn
procedure.details: SPR, pH 6
Documented Kd across a set of binders

binder | Kd [µM]
RFXTGHFSGLYPC (Pen at 3; D-Ser at 8; Sar at 9; NMeLeu at 10; disulfide; C-terminal amide) [Peptide No. 241] | 1.1
RFXTGHFEGLYPC (Pen at 3; D-Glu at 8; Sar at 9; NMeLeu at 10; disulfide; C-terminal amide) [Peptide No. 244] | 0.58
RFXTGHFFGLYPC (Pen at 3; D-Phe at 8; Sar at 9; NMeLeu at 10; disulfide; C-terminal amide) [Peptide No. 217] | 1.4

Numbers sourced from patent US20070254831A1.
